Source listed as PubChem BioAssay AID1159580.

Here the recorded normalized growth is given for each entry.
- MEASUREMENT_NOTES: chemical genetic growth profiling, strain panel (AID 1159580);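 also: tested at 20 µM; growth read once vehicle control cultures reached saturation at 30 °C; 1 = growth at the plate median or of vehicle wells; lower values mean less growth of the strain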
- CONDITION_LABEL: S. cerevisiae deletion strains, growth OD, locus YBR021W, strain FUR4, active compounds read low
Screen size: about 5,500 compounds; about 2,000 (36%) were called active. Inconclusive results (about 18%) are left out. This is one part of the list.
Just the number.

MOLECULE	VALUE_OBSERVED
CC(=O)Oc1cccc(C(=O)O)c1OC(C)=O	0.987
CC(=O)OCC(=O)[C@@]1(O)CCC2C3CCC4=CC(=O)CC[C@]4(C)C3[C@@H](O)C[C@@]21C (some centres not stated)	0.999
C=C(C)[C@H]1Cc2c(ccc3c2O[C@@H]2COc4cc(OC)c(OC)cc4[C@@H]2C3=O)O1	0.975
COC(=O)C[C@H]1C(C)(C)[C@@H](O)[C@@H]2CC3=C4C=C(OC)O[C@@H](c5ccoc5)[C@]4(C)CCC3[C@@]1(C)C2=O (some centres not stated)	1.01
CC[C@H]1OC(=O)[C@H](C)[C@@H](O[C@H]2C[C@@](C)(OC)[C@@H](O)[C@H](C)O2)[C@H](C)[C@@H](O[C@@H]2O[C@H](C)C[C@H](N(C)C)[C@H]2O)[C@](C)(O)C[C@@H](C)[C@@H]2N[C@@H](COCCOC)O[C@H]([C@H]2C)[C@]1(C)O	1.01
CCN(CC)CCNC(=O)c1cc(Cl)c(N)cc1OC	1.02
Cc1onc(-c2ccccc2)c1C(=O)NC1C(=O)N2[C@@H]1SC(C)(C)[C@@H]2C(=O)O (some centres not stated)	0.99
COc1cc(NS(=O)(=O)c2ccc(N)cc2)ncn1	1

Data request: Using known records, supply normalized growth for COC1(C)CCC2OC2(C)CCC2C1CC2(C)C (configuration not stated)
Data returned: 1.02

Data request: Give reported normalized growth value for CN1C(=O)CCS(=O)(=O)C1c1ccc(Cl)cc1 (configuration not stated)
Data returned: 1.02

Data request: Assign normalized growth to the following record: `O=C(CCc1ccc(O)cc1)c1c(O)cc(O)cc1O[C@@H]1O[C@H](CO)[C@@H](O)[C@H](O)[C@H]1O`
Data returned: 1.01

Data request: Identify the reported normalized growth for the following entry. `CC(=O)Oc1cccc2c1C(=O)c1c(OC(C)=O)cc(C(=O)O)cc1C2=O`
Data returned: 0.994

Data request: Consider the molecule `COc1ccc2c(c1)[C@]13CCCC[C@H]1[C@H](C2)N(C)CC3` and give its recorded normalized growth.
Data returned: 1.01

Data request: Specify reported normalized growth for the molecule shown: `NC[C@H]1O[C@H](O[C@H]2[C@H](O)[C@@H](O[C@H]3O[C@H](CO)[C@@H](O)[C@H](N)[C@H]3O)[C@H](N)C[C@@H]2N)[C@H](N)C[C@@H]1O`
Data returned: 1.02

Data request: Respond only with normalized growth recorded for COc1cc2c(cc1OC)[C@@H]1C(=O)c3ccc4c(c3O[C@@H]1CO2)CC(C(C)C)O4 (some centres not stated)
Data returned: 0.993

Data request: Tell us which normalized growth value is on record for `CC1(C)S[C@@H]2[C@H](NC(=O)Cc3ccccc3)C(=O)N2[C@H]1C(=O)O`
Data returned: 1.01

* * *

normalized growth for assorted molecules
- MEASUREMENT_NOTES: chemical genetic growth profiling, strain panel (AID 1159580);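 also: tested at 20 µM; growth read once vehicle control cultures reached saturation at 30 °C; 1 = growth at the plate median or of vehicle wells; lower values mean less growth of the strain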
- CONDITION_LABEL: S. cerevisiae deletion strains, growth OD, locus YLL001W, strain dnm1, active compounds read low
Hit rate of the full screen: of about 5,500 compounds, about 2,000 (36%) were called active. About 18% were inconclusive and are not listed. This is one part of the list.
API doc: respond with a numeric literal and nothing else, no unit.

Use these answered entries as a reference point.
> print(dat)
                                   molecule  value.observed
1          CCN(CC)CCNC(=O)c1cc(Cl)c(N)cc1OC           0.921
2  COc1cccc(OC)c1C(=O)N[C@@H]1C(=O)N2[C@@H]1SC(C)(C)[C@@H]2C(=O)O           0.963
3  CC(=O)OCC(=O)[C@@]1(O)CCC2C3CCC4=CC(=O)CC[C@]4(C)C3[C@@H](O)C[C@@]21C (some centres undefined)            1.01

Please turn your attention to the following entry.
Data request: Give the measured normalized growth for COc1c2c(cc3c1OCO3)C13C=C[C@H](OC)CC1N(C2)CC3O (some centres undefined)
Data returned: 0.996
